Record form. Attribute: EC50 (read off the curve). Fill in for each entry.
# Measured on: T1, human SIRPA_V4 (human, UniProt P78324 31-504)
# T1 construct: FLAG-tagged (pFLAG V5-DEST), on 293α cells; also called human SIRPA Variant 4
# T1 chain: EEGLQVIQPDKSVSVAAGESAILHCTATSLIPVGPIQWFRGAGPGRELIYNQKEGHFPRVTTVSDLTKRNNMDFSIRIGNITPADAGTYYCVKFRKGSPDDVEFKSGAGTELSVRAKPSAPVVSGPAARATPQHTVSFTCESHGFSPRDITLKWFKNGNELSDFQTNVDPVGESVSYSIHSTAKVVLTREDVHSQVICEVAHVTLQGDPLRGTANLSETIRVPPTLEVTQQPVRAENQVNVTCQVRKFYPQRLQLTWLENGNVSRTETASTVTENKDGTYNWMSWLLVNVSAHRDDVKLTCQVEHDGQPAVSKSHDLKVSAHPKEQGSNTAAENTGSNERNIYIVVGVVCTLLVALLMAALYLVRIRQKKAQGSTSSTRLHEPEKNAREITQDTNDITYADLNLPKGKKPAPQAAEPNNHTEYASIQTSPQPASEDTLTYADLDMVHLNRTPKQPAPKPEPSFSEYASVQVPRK
# Assay info: cell-based ELISA on 293α cells expressing FLAG-tagged SIRPA_V4; Abs 490 normalized to FLAG tag [iv]

stdin: Quick one: EC50 (read off the curve) of humanized anti-SIRPA antibody hD13_H2L3 (antibody, human IgG4 S228P, kappa, F234A L235A, V domains shown, hH2 heavy chain (IgG4proFALA) and hL3 kappa light chain; also called H2L3 antibody) VH: EVQLVESGGGVVQPGRSLRLSCAASGFTFSDYGMIWVRQAPGKGLEWVASISSSSSYIYYADSVKGRFTISRDNSKNTLYLQMNSLRAEDTAVYYCARRYYGFNYPFDYWGQGTMVTVSS VL: DTQLTQSPSSLSASVGQRVTITCGASKSVRTYMHWYQQKPGKQPKLLIYSASNLEAGVPSRFSGSGSGTDFTLTISSLQPEDFATYYCQQSNEPPYTFGQGTKLEIKR ?
stdout: ~0.04 µg/mL

stdin: Please look up its EC50 (read off the curve): humanized anti-SIRPA antibody hD13_H1L4 (antibody, human IgG4 S228P, kappa, F234A L235A, V domains shown, hH1 heavy chain (IgG4proFALA) and hL4 kappa light chain; also called hD13_HIL4; hD13_HIL4h) VH: QVQLVESGGGVVQPGRSLRLSCAASGFTFSDYGMIWVRQAPGKGLEWVASISSSSSYIYYADSVKGRFTISRDNSKNRLYLQMNSLRAEDTAVYYCARRYYGFNYPFDYWGQGTMVTVSS VL: DTVLTQSPDSLAVSLGQRATINCGASKSVRTYMHWYQQKPGQQPKLLIYSASNLEAGVPSRFSGSGSGTDFTLTISSLQAEDVAVYYCQQSNEPPYTFGQGTKVEIKR
stdout: ~0.04 µg/mL

stdin: Reported EC50 (read off the curve), binder human chimeric anti-SIRPA antibody cD13 (antibody, human IgG4 S228P, kappa, F234A L235A, V domains shown, Human IgG4proFALA heavy chain, human kappa light chain; also called cD13 (IgG4pf); human chimeric antibody D13) VH: EVQLVESGGGLVQPGRSLKLSCLASGFTFSDYGMIWVRQAPGKGLEWVASISSSSSYIYYADTVKGRFTISRENAKNTLFLHMTSLRSEDTALYYCARRYYGFNYPFDYWGQGVMVTVSS VL: DTVLTQSPALAVSLGQRVTISCGASKSVRTYMHWYQQKSGQQPKLLIYSASNLEAGVPSRFSGSGSGTDFTLTIDPVEADDIANYYCQQSNEPPYTFGAGTKLELKR : ____
stdout: ~0.04 µg/mL

stdin: Bench note: what EC50 (read off the curve) did humanized anti-SIRPA antibody hD13_H1L3 (antibody, human IgG4 S228P, kappa, F234A L235A, V domains shown, hH1 heavy chain (IgG4proFALA) and hL3 kappa light chain; also called hD13_HIL3; HIL3 antibody) VH: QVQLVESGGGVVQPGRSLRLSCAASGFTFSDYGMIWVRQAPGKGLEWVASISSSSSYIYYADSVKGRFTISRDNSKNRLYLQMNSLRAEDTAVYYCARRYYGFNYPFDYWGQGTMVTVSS VL: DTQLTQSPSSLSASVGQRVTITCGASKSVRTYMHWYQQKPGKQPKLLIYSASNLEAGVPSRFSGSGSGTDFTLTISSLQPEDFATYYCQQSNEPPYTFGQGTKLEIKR show?
stdout: ~0.03 µg/mL

stdin: So what's the measured EC50 (read off the curve) for this one? humanized anti-SIRPA antibody hD13_H2L2 (antibody, human IgG4 S228P, kappa, F234A L235A, V domains shown, hH2 heavy chain (IgG4proFALA) and hL2 kappa light chain; also called H2L2 antibody) VH: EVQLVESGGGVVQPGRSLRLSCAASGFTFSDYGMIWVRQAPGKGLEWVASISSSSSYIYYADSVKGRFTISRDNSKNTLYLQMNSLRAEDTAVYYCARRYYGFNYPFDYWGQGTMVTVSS VL: AIQLTQSPSSLSASVGQRVTITCGASKSVRTYMHWYQQKPGKAPKLLIYSASNLEAGVPSRFSGSGSGTDFTLTISSLQPEDFATYYCQQSNEPPYTFGQGTKLEIKR
stdout: ~0.04 µg/mL

Cited source for all entries: patent US20260098102A1
